studyTarget: T1, Rabbit v6-peptide (rabbit)
T1 construct: domain: v6-region (43 amino acids); also called Rb v6-peptide; rb v6-peptide
method: SPR SCK, antibody immobilised, peptide injected

{"binder": "AL-MN114-71 IgG1 LALA IAHA (antibody, V domains shown, Human IgG1 LALA IAHA, kappa) VH: EVQLLESGGGLVQPGGSLRLSCAASGFSFRSFAMSWVRQAPGKGLEWVSAISGGGSSTFYADSVKGRFTISRDNSKNTLYLQMNSLRAEDTAVYYCARHYYSDSDYRSSAAMDYWGQGTLVTVSS VL: DIQMTQSPSSLSASVGDRVTITCRASQSISSYLNWYQQKPGKAPKLLIYAASTLQSGVPSRFSGSGSGTDFTLTISSLQPEDFATYYCQQDLYLLTFGQGTKLEIK", "displayUnit": "M⁻¹ s⁻¹", "kon": 710000}
